Readings of melting point for the listed compounds

For orientation, consider the following solved cases.
{"compound": "Brc1ccc2[nH]c(-c3nc4ccccc4s3)cc2c1 [Compound 22d]", "measured": "208 to 210 °C"}
{"compound": "Brc1ccc2[nH]c(-c3nc4ccc(Br)cc4s3)cc2c1 [Compound 22g]", "measured": "246 to 248 °C"}
{"compound": "Brc1cc2cc(-c3cc4ccccc4[nH]3)[nH]c2cc1Br [Compound 10j, 5,6-Dibromo-1H,1′H-2,2′-biindole]", "measured": "233 °C (dec.)"}

From here, focus on the item given below.
Provide melting point value for the following compound: Brc1ccc2[nH]c(-c3cc4ccccc4o3)cc2c1 [Compound 22e, 2-(Benzofuran-2-yl)-5-bromo-1H-indole] 236 to 238 °C

----------
# System: S. aureus ATCC 29213
# method: In vitro susceptibility, broth microdilution MIC
# Type: cell-based, Staphylococcus aureus
# conditions.used: Staphylococcus aureus, ATCC29213, Table 8; tested at least in duplicate, differing values all given; read-out: MIC
Labelling: MIC reported below 30 µg/mL becomes class 1; at or above becomes class 0.

Solved entries (count: 6):
{"compound": "Brc1ccc2cc(CSc3nc4ccccc4[nH]3)[nH]c2c1", "label.class": "class 0"}
{"compound": "COC(=O)c1c(C(=O)Nc2ccc(Cl)nc2)[nH]c2cc(Br)ccc12", "label.class": "class 0"}
{"compound": "Clc1ccc(CCc2nc3ccc(Br)cc3[nH]2)cc1", "label.class": "class 1"}
{"compound": "Brc1ccc(/C=C/c2cc3ccc(Br)cc3[nH]2)nc1", "label.class": "class 0"}
{"compound": "Brc1ccc2cc(CNCc3ccccc3)[nH]c2c1", "label.class": "class 0"}
{"compound": "Cc1ccc(/C=C/c2cc3ccc(Br)cc3[nH]2)cn1", "label.class": "class 0"}

Please indicate whether the reported MIC of COC(=O)c1c(NCc2cn3ccccc3n2)[nH]c2cc(Br)ccc12 is strictly below 30 µg/mL. class 0

API: query returns whether the compound falls strictly under 30 µg/mL in MIC. Query: Clc1ccc2[nH]c(-c3cc4ccc(Br)cc4[nH]3)nc2c1 class 1

# strict comparison: is reported MIC < 30 µg/mL? input = COc1ccc(/C=C/c2cc3ccc(Br)cc3[nH]2)nc1 class 0

----------
Measured inhibition at 10 µM, listed per entry.
# tested.system: Human R PK (Homo sapiens)
# Construct: His tag; made in house; host or cells: E. coli BL-21 (DE3); construct a gift of Dr. L. Cantley
# Sequence (P30613 whole entry): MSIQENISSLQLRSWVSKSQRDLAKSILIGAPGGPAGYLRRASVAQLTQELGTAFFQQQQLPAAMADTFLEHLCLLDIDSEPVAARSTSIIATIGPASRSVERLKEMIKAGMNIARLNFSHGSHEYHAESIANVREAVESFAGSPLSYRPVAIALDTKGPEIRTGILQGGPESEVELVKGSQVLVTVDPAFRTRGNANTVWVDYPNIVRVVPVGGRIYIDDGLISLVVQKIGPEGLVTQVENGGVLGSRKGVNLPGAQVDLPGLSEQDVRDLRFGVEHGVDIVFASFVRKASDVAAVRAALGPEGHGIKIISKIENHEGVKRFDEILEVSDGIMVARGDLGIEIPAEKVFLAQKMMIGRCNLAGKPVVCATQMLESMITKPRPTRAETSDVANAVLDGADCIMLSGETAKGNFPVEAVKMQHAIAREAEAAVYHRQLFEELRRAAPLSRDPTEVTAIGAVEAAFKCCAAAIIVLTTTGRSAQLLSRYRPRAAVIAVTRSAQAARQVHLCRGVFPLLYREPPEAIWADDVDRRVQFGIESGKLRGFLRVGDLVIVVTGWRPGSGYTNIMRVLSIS
# method: Human PK selectivity, LDH-coupled enzyme assay
# Assay type: biochemical
# conditions.used: at 10 μM; read-out: % Inhibition Human R
# output: number + unit

Solved cases below.
{"compound": "Brc1ccc2cc(/C=C/c3cc4ccccc4[nH]3)[nH]c2c1 [Compound 27a]", "endpoint.name": "inhibition at 10 µM", "measured": "23.8%"}
{"compound": "Brc1ccc2cc(-c3cc4ccccc4o3)[nH]c2c1 [Compound 22b, 2-(Benzofuran-2-yl)-6-bromo-1H-indole]", "endpoint.name": "inhibition at 10 µM", "measured": "-5.5%"}
{"compound": "CN1CCN(CCn2c(-c3cc4ccc(Br)cc4[nH]3)cc3cc(Br)ccc32)CC1 [Compound 20a]", "endpoint.name": "inhibition at 10 µM", "measured": "26.1%"}
{"compound": "Brc1ccc2[nH]c(-c3cc4ccc(Br)cc4[nH]3)cc2c1 [Compound 10c, 5,6-Bibromo-1H,1′H-2,2′-biiindole]", "endpoint.name": "inhibition at 10 µM", "measured": "13.6%"}
{"compound": "Brc1ccc2cc(-c3nc4ccccc4s3)[nH]c2c1 [Compound 22a]", "endpoint.name": "inhibition at 10 µM", "measured": "21.6%"}

In one line, give reported inhibition at 10 µM of the entry Brc1ccc2[nH]c(C#Cc3cc4ccc(Br)cc4[nH]3)cc2c1 [Compound 25c] . 27.8%

Output inhibition at 10 µM of Cn1c(-c2cc3ccc(Br)cc3[nH]2)cc2cc(Br)ccc21 [Compound 12a] 2.7%

----------
Entries and their MIC values follow.
# Test system: E. coli (DAS 1-IMP)
# method: microbe, parasite or virus in culture
# Assay type: cell-based, Escherichia coli
# conditions.used: Escherichia coli, read-out: MIC (μg/mL) C, E. coli (DAS 1-IMP)
Number only, in µg/mL; omit the unit.

{"chem.smiles": "O=C(O)c1c(/C=C/c2ccc(Cl)cc2)[nH]c2cc(Br)ccc12", "tested.system": "E. coli (DAS 1-IMP)", "endpoint.name": "MIC", "measured": 64}

Then this compound:
Provide only the value of recorded MIC for O=C(c1c(CCc2ccc(Cl)cc2)[nH]c2cc(Br)ccc12)C(F)(F)F 4

----------
Catalogue of inhibition at 10 µM readings, one per entry.
# tested.system: MRSA PK (Staphylococcus aureus, UniProt Q6GG09)
# Construct: His tag (pET-28a(+) vector) (N); made in house; host or cells: E. coli BL-21 (DE3)
# Sequence (Q6GG09 whole entry): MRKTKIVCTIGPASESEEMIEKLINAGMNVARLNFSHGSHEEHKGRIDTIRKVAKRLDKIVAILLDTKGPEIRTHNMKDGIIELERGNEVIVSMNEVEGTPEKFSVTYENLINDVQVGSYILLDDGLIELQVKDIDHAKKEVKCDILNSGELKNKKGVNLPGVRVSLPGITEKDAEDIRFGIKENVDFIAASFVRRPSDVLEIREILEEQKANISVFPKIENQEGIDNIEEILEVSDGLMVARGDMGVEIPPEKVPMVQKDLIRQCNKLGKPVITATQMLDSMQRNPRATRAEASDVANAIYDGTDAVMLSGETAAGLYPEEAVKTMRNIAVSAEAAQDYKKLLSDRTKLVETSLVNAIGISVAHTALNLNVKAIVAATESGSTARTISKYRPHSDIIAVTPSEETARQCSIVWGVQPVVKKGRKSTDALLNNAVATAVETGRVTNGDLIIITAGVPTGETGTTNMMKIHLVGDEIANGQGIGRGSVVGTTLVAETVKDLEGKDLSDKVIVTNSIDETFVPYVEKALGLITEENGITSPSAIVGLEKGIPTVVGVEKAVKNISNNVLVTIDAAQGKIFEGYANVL
# method: MRSA PK activity, continuous LDH-coupled assay
# Type: biochemical, S. aureus (MRSA strain Sanger 252)
# conditions.used: read-out: % inhibition at the highest concentration tested (IC50)
Output spec: scalar in %, unitless text.

Example entries and their recorded answers appear below.
{"compound": "O=C(c1cc2ccc(Br)cc2[nH]1)c1cc(Br)ccc1O [Compound 87]", "endpoint.name": "inhibition at 10 µM", "unit.info": "%", "measured": 58}
{"compound": "Brc1ccc2[nH]c(-c3ccc(-c4cc5cc(Br)ccc5[nH]4)s3)cc2c1 [Compound 43, 2,5-bis(5-Bromo-1H-indol-2-yl)thiophene]", "endpoint.name": "inhibition at 10 µM", "unit.info": "%", "measured": 50}
{"compound": "Brc1ccc2cc(-c3ccc(-c4cc5ccc(Br)cc5[nH]4)nn3)[nH]c2c1 [Compound 49, 3,6-bis(6-Bromo-1H-indol-2-yl)pyridazine]", "endpoint.name": "inhibition at 10 µM", "unit.info": "%", "measured": 70}
{"compound": "C(=C\\c1cc2ccccc2[nH]1)/c1cc2ccccc2[nH]1 [Compound 44]", "endpoint.name": "inhibition at 10 µM", "unit.info": "%", "measured": 63}
{"compound": "Cn1c(C#Cc2cc3cc(Br)ccc3[nH]2)cc2cc(Br)ccc21 [Compound 48]", "endpoint.name": "inhibition at 10 µM", "unit.info": "%", "measured": 60}

Please indicate inhibition at 10 µM recorded for Brc1ccc(-c2cccc(-c3cc4ccccc4[nH]3)c2)cc1 [Compound 59] 54

Annotate the compound Cn1c(-c2cc3cc(Br)ccc3[nH]2)cc2ccc(Br)cc21 [Compound 12b] with its measured inhibition at 10 µM. 25

Give inhibition at 10 µM for the following compound: FC(F)(F)C1(c2ccc(-c3cc4ccc(Br)cc4[nH]3)cc2)NN1 [Compound 89] 84

Annotate the compound O=C1c2ccc(Br)cc2C(=O)N1c1nc2ccc(Br)cc2s1 [Compound 65] with its measured inhibition at 10 µM. 76

Look up and state reported inhibition at 10 µM for O=C(Nc1nc2ccccc2s1)c1cc(Br)ccc1O [Compound 56] 76

Given Brc1ccc2[nH]c(C#Cc3cc4cc(Br)ccc4[nH]3)cc2c1 [Compound 45, 1,2-bis(5-Bromo-1H-indol-2-yl)ethyne] , respond with its inhibition at 10 µM. 60

----------
// melting point lookup, one value per entry

// below: answered compounds
{"compound": "Brc1ccc2c(c1)cc(-c1cc3ccc(Br)cc3[nH]1)n2CCN1CCCCC1", "melting point": "102 to 104 °C"}
{"compound": "Brc1ccc2[nH]c(CCc3cc4ccc(Br)cc4[nH]3)cc2c1 [Compound 28b]", "melting point": "208 to 210 °C"}
{"compound": "COCn1c(-c2cc3ccc(Br)cc3[nH]2)cc2cc(Br)ccc21 [Compound 12c]", "melting point": "199 to 201 °C"}
{"compound": "CN1CCN(CCn2c(-c3cc4ccc(Br)cc4[nH]3)cc3cc(Br)ccc32)CC1 [Compound 20a]", "melting point": "140 °C"}
{"compound": "Brc1ccc2[nH]c(-c3cc4ccc(Br)cc4[nH]3)cc2c1 [Compound 10c, 5,6-Bibromo-1H,1′H-2,2′-biiindole]", "melting point": "270 to 272 °C"}

Consider the compound Brc1ccc2cc(-c3cc4ccccc4[nH]3)[nH]c2c1 [Compound 10a, 6-Bromo-1H,1′H-2,2′-biindole] and give its recorded melting point. 199 to 201 °C

Fill in melting point for record O=C(Cn1c(-c2cc3ccc(Br)cc3[nH]2)cc2cc(Br)ccc21)N1CCOCC1 320 to 322 °C

// fetch melting point given entry Brc1ccc2cc(-c3cc4ccccc4s3)[nH]c2c1 [Compound 22c] 250 to 252 °C

----------
# method: Pharmacokinetic study
# Assay type: in vivo, female CD-1 mice
# conditions.used: female, CD-1, mouse, plasma, 10 mg/kg; PO administration; read-out: bioavailability (% F)
# Protocol: The MTD and pharmacokinetic profiles of compounds 123 and 178 administered IV or PO were determined in female CD-1 mice (6-8 weeks of age). Compounds were dissolved in 3% DMSO/6% Solutol® HS 15/10 mM PB (pH7.4) for IV administration and in 3% DMSO/6% Solutol® HS 15/water for oral administration. For the pharmacokinetic study, animals were injected with their respective compound at the dose indicated in 11. […]
endpoint.name: bioavailability

Consider the compound O=C(c1c(-c2cc3cc(Cl)ccc3[nH]2)[nH]c2cc(Br)ccc12)C(F)(F)F [Compound 178] and give its recorded bioavailability. 21%
